Consider the following IC50 values measured on GST tagged wild type TGFβR1 (Homo sapiens (Human)).
Sequence (P36897 34-503): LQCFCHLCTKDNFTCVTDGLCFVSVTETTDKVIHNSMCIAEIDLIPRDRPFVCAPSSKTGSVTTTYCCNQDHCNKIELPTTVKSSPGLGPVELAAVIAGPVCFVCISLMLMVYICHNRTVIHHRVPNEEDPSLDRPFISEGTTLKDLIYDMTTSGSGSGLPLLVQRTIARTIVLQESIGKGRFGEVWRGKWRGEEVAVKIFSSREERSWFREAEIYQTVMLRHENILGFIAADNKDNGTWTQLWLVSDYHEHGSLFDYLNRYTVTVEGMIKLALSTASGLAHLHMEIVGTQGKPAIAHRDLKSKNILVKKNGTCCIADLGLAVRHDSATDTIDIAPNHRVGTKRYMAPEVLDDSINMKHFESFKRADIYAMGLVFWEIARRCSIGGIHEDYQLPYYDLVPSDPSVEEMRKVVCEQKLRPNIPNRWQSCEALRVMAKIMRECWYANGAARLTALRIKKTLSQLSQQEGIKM

[
  {
    "compound string": "O=C(NCCN1CCS(=O)(=O)CC1)c1cnccc1Nc1nc(-c2ccccn2)nn2cccc12",
    "tested target": "GST tagged wild type TGFβR1 (Homo sapiens (Human))",
    "IC50 / nM": 2600
  },
  {
    "compound string": "Cc1ccnc(-c2nc(Nc3ccncc3F)c3cccn3n2)c1",
    "tested target": "GST tagged wild type TGFβR1 (Homo sapiens (Human))",
    "IC50 / nM": 1700
  },
  {
    "compound string": "CN1CCN(Cc2ccn3nc(-c4cccc(C(F)F)n4)nc(Nc4ccncc4F)c23)CC1",
    "tested target": "GST tagged wild type TGFβR1 (Homo sapiens (Human))",
    "IC50 / nM": 6
  }
]

Values from patent US10336761B2
